assay: Cytotoxicity against human KBV cells assessed as cell survival at 10 uM after 72 hrs by MTT assay relative to control; type: cell-based; settings: read-out: Survival
Please respond with reported viability at 72 h, 10 µM for every item in the list.
Numbers only, in %.

molecular_string=CC(C)(O)[C@H]1CC[C@@](C)([C@H]2CC[C@]3(C)[C@@H]2[C@H](O)C[C@@H]2[C@@]4(C)CC[C@H](N)C(C)(C)[C@@H]4CC[C@]23C)O1 readout_kind="viability at 72 h, 10 µM" recorded_result=125
molecular_string=CCCCCCCC(=O)N[C@H]1CC[C@]2(C)[C@H]3C[C@@H](O)[C@@H]4[C@@H]([C@]5(C)CC[C@H](C(C)(C)O)O5)CC[C@@]4(C)[C@]3(C)CC[C@H]2C1(C)C readout_kind="viability at 72 h, 10 µM" recorded_result=70
molecular_string=CC(C)(C)OC(=O)NCCCCCCCC(=O)N[C@H]1CC[C@]2(C)[C@H]3C[C@@H](O)[C@@H]4[C@@H]([C@]5(C)CC[C@@H](C(C)(C)O)O5)CC[C@@]4(C)[C@]3(C)CC[C@H]2C1(C)C readout_kind="viability at 72 h, 10 µM" recorded_result=111
molecular_string=CC(C)(O)[C@H]1CC[C@@](C)([C@H]2CC[C@]3(C)[C@@H]2[C@H](O)C[C@@H]2[C@@]4(C)CC[C@H](NC(=O)c5ccccc5)C(C)(C)[C@@H]4CC[C@]23C)O1 readout_kind="viability at 72 h, 10 µM" recorded_result=101
molecular_string=CC(C)(O)[C@H]1CC[C@@](C)([C@H]2CC[C@]3(C)[C@@H]2[C@H](O)C[C@@H]2[C@@]4(C)CC[C@H](NC(=O)CCCCCCCN)C(C)(C)[C@@H]4CC[C@]23C)O1 readout_kind="viability at 72 h, 10 µM" recorded_result=80
molecular_string=CC(C)(O)[C@H]1CC[C@@](C)([C@H]2CC[C@]3(C)[C@@H]2[C@H](O)C[C@@H]2[C@@]4(C)CC[C@H](NC(=O)c5cccnc5)C(C)(C)[C@@H]4CC[C@]23C)O1 readout_kind="viability at 72 h, 10 µM" recorded_result=87
molecular_string=CC(C)(O)[C@@H]1CC[C@@](C)([C@H]2CC[C@]3(C)[C@@H]2[C@H](O)C[C@@H]2[C@@]4(C)CC[C@H](NC(=O)c5ccccc5)C(C)(C)[C@@H]4CC[C@]23C)O1 readout_kind="viability at 72 h, 10 µM" recorded_result=116
molecular_string=CC(C)(O)[C@H]1CC[C@@](C)([C@H]2CC[C@]3(C)[C@@H]2[C@H](O)C[C@@H]2[C@@]4(C)CC[C@H](NC(=O)c5ccccc5C(=O)O)C(C)(C)[C@@H]4CC[C@]23C)O1 readout_kind="viability at 72 h, 10 µM" recorded_result=105

// for each compound in input: emit viability at 72 h, 10 µM
1. CC(C)(O)[C@H]1CC[C@@](C)([C@H]2CC[C@]3(C)[C@@H]2[C@H](O)C[C@@H]2[C@@]4(C)CC[C@H](NC(=O)CCCN)C(C)(C)[C@@H]4CC[C@]23C)O1
2. CC(C)(C)OC(=O)NCCCC(=O)N[C@H]1CC[C@]2(C)[C@H]3C[C@@H](O)[C@@H]4[C@@H]([C@]5(C)CC[C@H](C(C)(C)O)O5)CC[C@@]4(C)[C@]3(C)CC[C@H]2C1(C)C
3. CC(C)(O)[C@@H]1CC[C@@](C)([C@H]2CC[C@]3(C)[C@@H]2[C@H](O)C[C@@H]2[C@@]4(C)CC[C@H](NC(=O)CN)C(C)(C)[C@@H]4CC[C@]23C)O1
4. CC(C)(O)[C@H]1CC[C@@](C)([C@H]2CC[C@]3(C)[C@@H]2[C@H](O)C[C@@H]2[C@@]4(C)CC[C@H](O)C(C)(C)[C@@H]4CC[C@]23C)O1
5. CC(C)(C)OC(=O)Nc1ccc(C(=O)N[C@H]2CC[C@]3(C)[C@H]4C[C@@H](O)[C@@H]5[C@@H]([C@]6(C)CC[C@H](C(C)(C)O)O6)CC[C@@]5(C)[C@]4(C)CC[C@H]3C2(C)C)cc1

// result
[77, 67, 90, 94, 77]

Go through the items and report each one's viability at 72 h, 10 µM.
1. CC(C)(C)OC(=O)NCCCCCCCC(=O)N[C@H]1CC[C@]2(C)[C@H]3C[C@@H](O)[C@@H]4[C@@H]([C@]5(C)CC[C@H](C(C)(C)O)O5)CC[C@@]4(C)[C@]3(C)CC[C@H]2C1(C)C
2. CC(C)(O)[C@H]1CC[C@@](C)([C@H]2CC[C@]3(C)[C@@H]2[C@H](O)C[C@@H]2[C@@]4(C)CC[C@H](NC(=O)c5ccc(N)cc5)C(C)(C)[C@@H]4CC[C@]23C)O1
3. CC(C)(O)[C@@H]1CC[C@@](C)([C@H]2CC[C@]3(C)[C@@H]2[C@H](O)C[C@@H]2[C@@]4(C)CC[C@H](O)C(C)(C)[C@@H]4CC[C@]23C)O1
4. CC(C)(O)[C@H]1CC[C@@](C)([C@H]2CC[C@]3(C)[C@@H]2[C@H](O)C[C@@H]2[C@@]4(C)CC[C@H](NC(=O)CN)C(C)(C)[C@@H]4CC[C@]23C)O1
5. CC(C)(C)OC(=O)NCC(=O)N[C@H]1CC[C@]2(C)[C@H]3C[C@@H](O)[C@@H]4[C@@H]([C@]5(C)CC[C@@H](C(C)(C)O)O5)CC[C@@]4(C)[C@]3(C)CC[C@H]2C1(C)C

// result
106
75
111
103
96

// query Consider the compound CC(C)(C)OC(=O)NCCCCCC(=O)N[C@H]1CC[C@]2(C)[C@H]3C[C@@H](O)[C@@H]4[C@@H]([C@]5(C)CC[C@H](C(C)(C)O)O5)CC[C@@]4(C)[C@]3(C)CC[C@H]2C1(C)C and give its measured viability at 72 h, 10 µM.
// result 128

These measurements were taken from ChEMBL document CHEMBL4325852.
